# TEST SYSTEM: follicle-stimulating hormone (FSH) receptor (Rattus norvegicus, UniProt P20395)
# Construct: endogenous in cells
# MEASUREMENT NOTES: Rat granulosa EC50 FSH (Assay B)
// values below are reported EC50

These solved cases illustrate the format of a correct answer.
COc1cc2c(cc1-c1cccc(C(=O)O)c1)-c1c(c(C(=O)N(C)C(C)(C)C)nn1-c1cc(Cl)cc(Cl)c1)CO2 :: 101 to 500 nM
COc1cc2c(cc1-c1cnn(CC(O)CO)c1)-c1c(c(C(=O)N(C)C(C)(C)C)nn1-c1cc(Cl)cc(Cl)c1)CO2 (single isomer, unassigned) [Compound 191] :: 101 to 500 nM
COc1cc2c(cc1-c1cncc(C(=O)O)c1)-c1c(c(C(=O)N(C)C(C)(C)C#N)nn1-c1cc(F)cc(F)c1)CO2 :: 101 to 500 nM
COc1cc(OC)cc(-n2nc(C(=O)N(C)C(C)(C)C)c3c2-c2cc(-c4cncc(C(N)=O)c4)c(OC)cc2OC3)c1 :: 10 to 100 nM

For the molecule shown here, COc1cc(F)cc(-n2nc(C(=O)N3CCOCC3(C)C)c3c2-c2cc(-c4cnn(CCO)c4)c(OC)cc2OC3)c1 , give the reported EC50. 10 to 100 nM

Which value of EC50 has been reported for COc1cc(OC)cc(-n2nc(C(=O)N3CCOCC3(C)C)c3c2-c2cc(-c4cccnc4F)c(OC)cc2OC3)c1 in the records? 10 to 100 nM

Tell me the measured EC50 of COc1cc(Cl)cc(-n2nc(C(=O)N3CCOCC3(C)C)c3c2-c2cc(-c4cncc(C(N)=O)c4)c(OC)cc2OC3)c1 , please. < 10 nM

// lookup EC50 for COc1cc2c(cc1OC(C)CO)-c1c(c(C(=O)N(C)C(C)(C)C)nn1-c1ccsc1)CO2 (stereo not shown) 101 to 500 nM

Query: EC50; subject: COc1cc2c(cc1-c1cccnc1F)-c1c(c(C(=O)N3CCOCC3(C)C)nn1-c1ccsc1)CO2 10 to 100 nM

Any idea what its EC50 is? The molecule is COc1cc2c(cc1-c1cncc(CO)c1)-c1c(c(C(=O)N(C)C(C)(C)C#N)nn1-c1cc(Cl)cc(Cl)c1)CO2 10 to 100 nM

* * *

# TEST SYSTEM: FSHR (Homo sapiens)
# Sequence (P23945 18-695): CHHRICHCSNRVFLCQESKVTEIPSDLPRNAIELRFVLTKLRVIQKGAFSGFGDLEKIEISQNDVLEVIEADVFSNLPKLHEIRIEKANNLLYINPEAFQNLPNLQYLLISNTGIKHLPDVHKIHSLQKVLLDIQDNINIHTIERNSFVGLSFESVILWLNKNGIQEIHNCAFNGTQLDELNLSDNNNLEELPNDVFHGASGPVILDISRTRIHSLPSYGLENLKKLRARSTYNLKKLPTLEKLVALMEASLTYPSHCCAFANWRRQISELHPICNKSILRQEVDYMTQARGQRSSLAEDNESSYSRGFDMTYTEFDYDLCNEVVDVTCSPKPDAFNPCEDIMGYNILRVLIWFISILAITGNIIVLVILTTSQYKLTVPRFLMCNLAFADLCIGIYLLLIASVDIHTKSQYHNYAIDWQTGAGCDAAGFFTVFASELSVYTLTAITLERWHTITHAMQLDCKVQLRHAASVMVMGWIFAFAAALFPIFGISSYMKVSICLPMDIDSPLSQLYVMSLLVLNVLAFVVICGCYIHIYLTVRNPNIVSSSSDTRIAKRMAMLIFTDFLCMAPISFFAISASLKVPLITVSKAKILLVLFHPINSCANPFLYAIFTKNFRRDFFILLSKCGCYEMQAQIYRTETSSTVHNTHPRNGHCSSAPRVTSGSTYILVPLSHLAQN
# MEASUREMENT NOTES: EC50 of cyclic AMP production in CHO FSHR cells + EC20 FSH (Assay A)
# CONDITION CONTEXT: cyclic AMP production in CHO FSHR cells + EC20 FSH (0.265 pM), HTRF
pEC50: −log10 of the molar value.
Listing of entries alongside the reported pEC50.

COCC1(CC(F)(F)F)CCCN1C(=O)c1nn(-c2ccsc2)c2c1COc1cc(OC)c(-c3ccn(C)n3)cc1-2 (stereo not drawn) :: 7.00 to 8.00
COc1cc2c(cc1-c1cc(C(N)=O)ncn1)-c1c(c(C(=O)N(C)C(C)(C)C)nn1-c1cc(Cl)cc(Cl)c1)CO2 :: 7.00 to 8.00

Query (molecule): COc1cc2c(cc1-c1ccn(C)n1)-c1c(c(C(=O)N3CCS(=O)(=O)CC3(C)C)nn1-c1cc(Cl)cc(Cl)c1)CO2 ; field requested: pEC50 7.00 to 8.00

Reported pEC50, molecule COc1cc2c(cc1-c1cncc(CO)c1)-c1c(c(C(=O)N(C)C(C)(C)C#N)nn1-c1cc(Cl)cc(Cl)c1)CO2 : ____ > 8.00

So what does the record say about pEC50 for COc1cc2c(cc1-c1cccc(C(=O)O)c1)-c1c(c(C(=O)N(C)C(C)(C)C)nn1-c1cc(Cl)cc(Cl)c1)CO2 ? 7.00 to 8.00

Quick one: pEC50 for COc1cc2c(cc1-c1cnn(CC(=O)N(C)C)c1)-c1c(c(C(=O)N(C)C(C)(C)C)nn1-c1cc(Cl)cc(Cl)c1)CO2 ? > 8.00

* * *

# TEST SYSTEM: follicle-stimulating hormone (FSH) receptor (Rattus norvegicus)
# Construct: endogenous in cells
# Sequence (P20395 18-692): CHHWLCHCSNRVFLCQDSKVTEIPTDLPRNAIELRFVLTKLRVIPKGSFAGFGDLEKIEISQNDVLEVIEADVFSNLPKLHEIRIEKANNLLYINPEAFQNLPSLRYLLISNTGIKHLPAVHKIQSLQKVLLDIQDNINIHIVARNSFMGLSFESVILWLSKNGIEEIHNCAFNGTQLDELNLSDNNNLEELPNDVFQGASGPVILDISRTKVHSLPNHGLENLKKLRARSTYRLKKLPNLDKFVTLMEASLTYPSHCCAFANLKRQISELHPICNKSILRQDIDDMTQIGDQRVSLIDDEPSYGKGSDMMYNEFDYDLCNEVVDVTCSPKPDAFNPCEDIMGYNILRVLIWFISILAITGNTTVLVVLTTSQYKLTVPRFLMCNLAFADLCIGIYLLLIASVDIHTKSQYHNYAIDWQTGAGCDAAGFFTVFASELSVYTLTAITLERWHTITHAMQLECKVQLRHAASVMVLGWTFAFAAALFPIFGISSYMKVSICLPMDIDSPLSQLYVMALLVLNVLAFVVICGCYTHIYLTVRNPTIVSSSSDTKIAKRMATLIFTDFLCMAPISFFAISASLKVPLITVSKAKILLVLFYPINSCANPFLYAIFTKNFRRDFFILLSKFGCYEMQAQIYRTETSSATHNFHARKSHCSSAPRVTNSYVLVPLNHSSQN
# MEASUREMENT NOTES: Rat granulosa EC50 FSH (Assay B)
pEC50: −log10 of the molar value.
Collected pEC50 values appear next to each entry.

These recorded examples may help you get a feel for the data.
COc1cc2c(cc1-c1ccccn1)-c1c(c(C(=O)N3CCC(O)CC3(C)C)nn1-c1cc(Cl)cc(Cl)c1)CO2 (stereo not shown) [Compound 102] :: 7.00 to 8.00
COc1cc(F)cc(-n2nc(C(=O)N3CCOCC3(C)C)c3c2-c2cc(-c4cnn(CC(N)=O)c4)c(OC)cc2OC3)c1 :: 6.30 to 7.00
COc1cc2c(cc1-c1ccccn1)-c1c(c(C(=O)N3CCC(O)CC3(C)C)nn1-c1cc(Cl)cc(Cl)c1)CO2 (stereo not shown) [Compound 10] :: 7.00 to 8.00

Okay, next one:
I'd like to know its pEC50. The compound in question is COc1cc2c(cc1-c1cc(=O)[nH][nH]1)-c1c(c(C(=O)N(C)C(C)(C)C)nn1-c1ccsc1)CO2 6.30 to 7.00

* * *

Catalogue of pEC50 values
# TEST SYSTEM: follicle-stimulating hormone (FSH) receptor (Rattus norvegicus, UniProt P20395)
# Construct: endogenous in cells
# MEASUREMENT NOTES: Rat granulosa EC50 FSH (Assay B)
# Experimental: Example 25. Rat granulosa EC50 FSH (Assay B) The assay was performed pursuant to the teaching of Yanofsky et al. (2006) Allosteric activation of the follicle-stimulating hormone (FSH) receptor by selective, nonpeptide agonists (JBC 281(19): 13226-13233, which is incorporated by reference in the disclosure of the invention).
pEC50: −log10 of the molar value.

Below, 5 compounds whose answers are already recorded.
COc1cc2c(cc1-c1ccn(C)n1)-c1c(c(C(=O)N3CC[S+]([O-])CC3(C)C)nn1-c1cc(Cl)cc(Cl)c1)CO2 (stereo not shown) :: 6.30 to 7.00
COc1cc2c(cc1-c1cncc(C#N)c1)-c1c(c(C(=O)N(C)C(C)(C)C#N)nn1-c1cc(F)cc(F)c1)CO2 :: 7.00 to 8.00
COc1cc2c(cc1CC(C)C)-c1c(c(C(=O)N3CCC(=O)CC3(C)C)nn1-c1ccsc1)CO2 :: 7.00 to 8.00
COc1cc2c(cc1-c1cncc(NC(N)=O)c1)-c1c(c(C(=O)N(C)C(C)(C)C)nn1-c1cc(Cl)cc(Cl)c1)CO2 :: 7.00 to 8.00
COc1cc2c(cc1-c1ccn(C)n1)-c1c(c(C(=O)N(C)C(C)(C)C#N)nn1-c1cc(F)cc(F)c1)CO2 :: < 6.30

Give its pEC50 value. Item: COc1cc(Cl)cc(-n2nc(C(=O)N(C)C(C)(C)C)c3c2-c2cc(-c4cncc(C(N)=O)c4)c(OC)cc2OC3)c1 7.00 to 8.00

Please look up its pEC50: CONC(=O)c1cncc(-c2cc3c(cc2OC)OCc2c(C(=O)N4CCOCC4(C)C)nn(-c4cc(Cl)cc(Cl)c4)c2-3)c1 > 8.00

* * *

Catalogue of pEC50 readings, one per entry.
# TEST SYSTEM: FSHR (Homo sapiens)
# Construct: expressed in transfected cells; host or cells: CHO (Cho-FSHR-LUC-1-1-43)
# MEASUREMENT NOTES: EC50 of cyclic AMP production in CHO FSHR cells + EC20 FSH (Assay A)
# Type: cell-based
# CONDITION CONTEXT: cyclic AMP production in CHO FSHR cells + EC20 FSH (0.265 pM), HTRF
pEC50: −log10 of the molar value.

A selection of reference data follows.
COc1cc2c(cc1-c1ccn(C)n1)-c1c(c(C(=O)N(CCO)C(C)(C)C)nn1-c1cc(Cl)cc(Cl)c1)CO2 [Compound 122] :: 7.00 to 8.00
COc1cc(OC)cc(-n2nc(C(=O)N(C)C(C)(C)C)c3c2-c2cc(-c4nn(C)cc4C#N)c(OC)cc2OC3)c1 [Compound 146] :: > 8.00
COc1cc2c(cc1-c1cccc(C#N)c1F)-c1c(c(C(=O)N(C)C(C)(C)C)nn1-c1cc(Cl)cc(Cl)c1)CO2 [Compound 19] :: > 8.00
COc1cc2c(cc1-c1ccccn1)-c1c(c(C(=O)N(C)C(C)(C)C)nn1-c1ccsc1)CO2 [Compound 58] :: 7.00 to 8.00
COc1cc2c(cc1-c1ccn(C)n1)-c1c(c(C(=O)N(C)C(C)(C)C#N)nn1-c1cc(F)cc(F)c1)CO2 [Compound 106] :: 7.00 to 8.00

Which pEC50 value belongs to COc1cc2c(cc1CC(C)C)-c1c(c(C(=O)N3CCC(=O)CC3(C)C)nn1-c1ccsc1)CO2 [Compound 125] ? > 8.00

Requested read-out: pEC50. Entry: COc1cc2c(cc1-c1cnn(CC(=O)N3CCC3)c1)-c1c(c(C(=O)N(C)C(C)(C)C)nn1-c1cc(Cl)cc(Cl)c1)CO2 [Compound 95] 7.00 to 8.00

Which pEC50 is listed for CCOC(=O)C1CC1c1cc2c(cc1OC)OCc1c(C(=O)N(C)C(C)(C)C)nn(-c3cc(Cl)cc(Cl)c3)c1-2 (centres unmarked) [Compound 196] ? > 8.00

Fill in: pEC50 of COc1cc(C(N)=O)cc(-c2cc3c(cc2OC)OCc2c(C(=O)N(C)C(C)(C)C)nn(-c4cc(Cl)cc(Cl)c4)c2-3)n1 [Compound 115] is ___ > 8.00

Name the reported pEC50 value associated with the compound COc1cc(OC)cc(-n2nc(C(=O)N3CC[S+]([O-])CC3(C)C)c3c2-c2cc(-c4ccn(C)n4)c(OC)cc2OC3)c1 (centres unmarked) [Compound 39] 7.00 to 8.00

Reference for the values: patent US10941152B2
